pIC50: −log10 of the molar value.
These records show pIC50 for human JAK2 (a.a. 828-1132) (Homo sapiens).

## Input Fill: pIC50 (human JAK2 (a.a. 828-1132) (Homo sapiens)) for this compound Cc1ccc(C(=O)Nc2cccc(OC(F)(F)F)c2)cc1-c1ccc2c(c1)[nH]c1ncncc12
## Output ≥ 6.30

## Input Fill: pIC50 (human JAK2 (a.a. 828-1132) (Homo sapiens)) for this compound Cc1ccc(C(=O)NCc2cccc(C(F)(F)F)c2)cc1-c1ccc2c(c1)[nH]c1ncncc12
## Output < 6.00

## Input Fill: pIC50 (human JAK2 (a.a. 828-1132) (Homo sapiens)) for this compound Cc1ncc(NC(=O)c2cc(F)cc(C(F)(F)F)c2)cc1-c1ccc2c(c1)[nH]c1ncncc12
## Output ≥ 6.30

----------
// reported GI50 for each item listed
- TARGET UNDER TEST: TF1-BCRABL1 cells (Homo sapiens, UniProt P00519)
- Sequence (P00519 whole entry, change not shown): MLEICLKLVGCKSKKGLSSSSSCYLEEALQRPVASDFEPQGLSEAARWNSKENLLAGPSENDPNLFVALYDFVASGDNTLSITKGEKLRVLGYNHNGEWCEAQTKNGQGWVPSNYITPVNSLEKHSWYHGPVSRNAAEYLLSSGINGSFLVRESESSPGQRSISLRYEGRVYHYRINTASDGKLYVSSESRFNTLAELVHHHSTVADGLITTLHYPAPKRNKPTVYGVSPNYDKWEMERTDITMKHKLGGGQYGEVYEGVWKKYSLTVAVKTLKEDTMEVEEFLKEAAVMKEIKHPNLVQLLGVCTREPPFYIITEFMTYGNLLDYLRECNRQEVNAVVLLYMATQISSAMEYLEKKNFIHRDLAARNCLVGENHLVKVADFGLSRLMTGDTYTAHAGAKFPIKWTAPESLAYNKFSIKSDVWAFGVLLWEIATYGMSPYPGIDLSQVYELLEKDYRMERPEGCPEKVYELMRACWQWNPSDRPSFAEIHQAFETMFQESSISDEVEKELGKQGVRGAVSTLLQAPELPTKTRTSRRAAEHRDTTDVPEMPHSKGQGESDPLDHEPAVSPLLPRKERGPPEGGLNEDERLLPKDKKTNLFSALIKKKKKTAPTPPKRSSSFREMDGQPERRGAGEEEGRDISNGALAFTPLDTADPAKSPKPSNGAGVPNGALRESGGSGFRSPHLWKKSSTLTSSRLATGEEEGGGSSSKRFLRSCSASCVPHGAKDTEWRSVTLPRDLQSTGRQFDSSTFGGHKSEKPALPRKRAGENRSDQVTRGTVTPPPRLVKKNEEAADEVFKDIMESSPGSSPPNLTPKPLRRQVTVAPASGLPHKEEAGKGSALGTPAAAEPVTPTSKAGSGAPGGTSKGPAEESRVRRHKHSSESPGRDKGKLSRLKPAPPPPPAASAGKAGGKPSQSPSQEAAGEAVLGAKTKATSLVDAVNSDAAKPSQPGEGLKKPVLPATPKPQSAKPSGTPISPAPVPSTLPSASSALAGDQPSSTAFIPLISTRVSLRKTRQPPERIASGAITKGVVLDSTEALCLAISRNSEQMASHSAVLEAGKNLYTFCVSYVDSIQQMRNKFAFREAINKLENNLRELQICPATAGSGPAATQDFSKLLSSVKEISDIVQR
- ASSAY SUMMARY: ABL1 cell based assay: viability of ABL1-dependent cell line (CellTiter-Glo)
- RECORDED CONDITIONS: 72 hours, cell viability; read-out: EXAMPLE F JAK2-TF1-BCRABL1 IC50

## Input Answer with reported GI50 of COc1ccc(C(=O)Nc2ccc(C)c(-c3ccc4c(c3)[nH]c3ncncc34)c2)cc1C(F)(F)F
## Output ≤ 500 nM

## Input Answer with reported GI50 of Cc1ccc(NC(=O)c2cc(NCCCn3ccnc3)cc(C(F)(F)F)c2)cc1-c1ccc2c(c1)[nH]c1ncncc12
## Output ≤ 500 nM

## Input Answer with reported GI50 of Cc1ccc(NC(=O)c2cc(N3CCC(O)C3)cc(C(F)(F)F)c2)cc1-c1ccc2c(c1)[nH]c1ncncc12 (centres unmarked)
## Output ≤ 500 nM

## Input Answer with reported GI50 of Cc1ccc(NC(=O)c2cccc(S(F)(F)(F)(F)F)c2)cc1-c1ccc2c(c1)[nH]c1ncncc12
## Output ≤ 500 nM

## Input Answer with reported GI50 of Cc1ccc(NC(=O)c2cc(N3CCNCC3)cc(C(F)(F)F)c2)cc1-c1ccc2c(c1)[nH]c1ncncc12
## Output ≤ 500 nM

## Input Answer with reported GI50 of Cc1cn(-c2cc(NC(=O)c3ccc(C)c(-c4ccc5c(c4)[nH]c4ncncc45)c3)cc(C(F)(F)F)c2)cn1
## Output ≤ 500 nM

----------
- TARGET UNDER TEST: TF1-BCRABL1 cells (Homo sapiens, UniProt P00519)
- ASSAY SUMMARY: ABL1 cell based assay: viability of ABL1-dependent cell line (CellTiter-Glo)
- RECORDED CONDITIONS: 72 hours, cell viability; read-out: EXAMPLE F JAK2-TF1-BCRABL1 IC50
OUTCOME MEASURE: GI50

## Input Answer with reported GI50 of Cc1ccc(NC(=O)c2cc(C(F)(F)F)cc(Cl)c2F)cc1-c1ccc2[nH]c3ncncc3c2c1 [Example 46]
## Output ≤ 0.5 µM

## Input Answer with reported GI50 of Cc1ccc(NC(=O)c2cccc(F)c2)cc1-c1ccc2[nH]c3ncncc3c2c1 [Example 44]
## Output 0.5 to 1 µM

## Input Answer with reported GI50 of Cc1ccc(NC(=O)c2cc(N3CCOCC3)cc(C(F)(F)F)c2)cc1-c1ccc2c(c1)[nH]c1ncncc12 [Example 27]
## Output ≤ 0.5 µM

## Input Answer with reported GI50 of Cc1ncc(NC(=O)c2cc(-n3cnc(CO)c3)cc(C(F)(F)F)c2)cc1-c1ccc2c(c1)[nH]c1ncncc12 [Example 75]
## Output ≤ 0.5 µM
